test: Half life in human liver microsomes; format: ADME
Reported half-life is given for each of the following molecules.

These recorded examples may help you get a feel for the data.
> print(dat)
                    structure.smiles.string  result
1  CS(=O)(=O)c1ccc(-n2cc(Cl)c(OC3CCN(c4ncc(C(F)(F)F)cn4)CC3)cc2=O)cc1   > 2 h
2  CS(=O)(=O)c1ccc(-n2cc(Cl)c(OC3CCN(c4ncc(C(F)(F)F)cn4)CC3)cc2=O)c(F)c1   > 2 h

Here is the next item to consider.
Noted for CS(=O)(=O)c1ccc(-n2cc(Cl)c(OC3CCN(c4ncc(C(F)(F)F)cn4)CC3)cc2=O)cc1F : its half-life reads > 2 h
